molecular target: oestrogen receptor (ER) (Homo sapiens, UniProt P03372); construct: These MVLN cells express, along with the functional oestrogen receptor (ER), a reporter construct; endogenous in cells; host or cells: MVLN cells (MCF7 derivative with ER-responsive luciferase reporter); experiment: Anti-oestrogenic action in MVLN cells (inhibition of estradiol-induced luciferase, transactivation antagonism); assay type: cell-based; details: inhibition of estradiol-induced luciferase activity, read-out: Anti-oestrogenic action in vitro: MVLN transactivation antagonism IC50
Sequence (P03372 whole entry): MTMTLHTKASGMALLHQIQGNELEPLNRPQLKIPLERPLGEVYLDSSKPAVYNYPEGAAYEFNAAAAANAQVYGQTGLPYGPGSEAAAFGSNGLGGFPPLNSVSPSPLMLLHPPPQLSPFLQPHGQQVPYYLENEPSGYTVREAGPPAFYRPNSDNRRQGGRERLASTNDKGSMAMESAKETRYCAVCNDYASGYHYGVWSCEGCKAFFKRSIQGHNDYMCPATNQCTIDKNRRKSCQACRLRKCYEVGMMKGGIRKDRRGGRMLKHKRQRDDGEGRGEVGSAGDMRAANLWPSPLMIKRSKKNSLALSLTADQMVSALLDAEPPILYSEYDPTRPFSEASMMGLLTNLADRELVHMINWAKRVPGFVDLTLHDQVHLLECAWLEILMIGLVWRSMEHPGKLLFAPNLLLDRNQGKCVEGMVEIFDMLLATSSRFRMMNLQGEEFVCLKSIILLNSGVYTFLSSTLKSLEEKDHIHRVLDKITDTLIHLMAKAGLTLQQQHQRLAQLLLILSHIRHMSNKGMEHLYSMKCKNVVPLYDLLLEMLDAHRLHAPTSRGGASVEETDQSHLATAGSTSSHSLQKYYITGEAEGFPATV
pIC50: −log10 of the molar value.
pIC50 by entry:

molecule	pIC50
CCN(CCCCCCC1=C(c2cccc(O)c2)CCCc2cc(O)ccc21)CCC[S+]([O-])CCC(F)(F)F (racemic)	8.05
CN(CCCCCC1=C(c2cccc(O)c2)CCCc2cc(O)ccc21)CCCCC[S+]([O-])CCCC(F)(F)C(F)(F)F (racemic)	8.10
CN(CCCCCC1=C(c2ccc(S(C)(=O)=O)cc2)CCCc2cc(O)ccc21)CCC[S+]([O-])CCCC(F)(F)C(F)(F)F (racemic)	7.85
CN(CCCCCCC1=C(c2ccc(F)c(O)c2)CCCc2cc(O)ccc21)CCCS(=O)(=O)CCCC(F)(F)C(F)(F)F	8.52
CN(CCCCCCC1=C(c2ccccc2)CCCc2c1ccc(O)c2Cl)CCCCS(=O)(=O)CCCC(F)(F)C(F)(F)F	7.59
CN(CCCCCCC1=C(c2ccccc2)CCCc2cc(O)ccc21)CCCC[S+]([O-])CCCC(F)(F)C(F)(F)F (racemic)	8.30
CN(CCCCCCC1=C(c2cccc(O)c2)CCCc2cc(O)ccc21)CCC[S+]([O-])CCCC(F)(F)C(F)(F)F (racemic)	8.70
CN(CCCCCCC1=C(c2cccc(O)c2)CCCc2cc(O)ccc21)CCCCC[S+]([O-])CCCC(F)(F)C(F)(F)F (racemic)	8.70
CN(CCCCCCC1=C(c2cccc(O)c2)CCCc2cc(O)ccc21)CCCCS(=O)(=O)CCC(F)(F)F	8.70
CN(CCCCCCC1=C(c2ccc(F)c(O)c2)CCCc2cc(O)ccc21)CCCCCS(=O)(=O)CCCC(F)(F)C(F)(F)F	8.22
CN(CCCCCCC1=C(c2cccc(O)c2)CCCc2cc(O)ccc21)CCCS(=O)(=O)CCC(F)(F)F	8.52
CN(CCCCCC1=C(c2ccccc2)CCCc2cc(O)ccc21)CCCSCCCC(F)(F)C(F)(F)F	7.43
CC(C)(O)CN(CCCCCCC1=C(c2ccccc2)CCCc2cc(O)ccc21)CCCS(=O)(=O)CCC(F)(F)F	8.15
CN(CCCCCCC1=C(c2cccc(O)c2)CCCc2cc(O)ccc21)CCCCCCS(=O)(=O)CCCC(F)(F)C(F)(F)F	8.30

* * *

IC50 by entry:
target: oestrogen receptor (ER) (Homo sapiens, UniProt P03372); construct: These MVLN cells express, along with the functional oestrogen receptor (ER), a reporter construct; endogenous in cells; assay: Anti-oestrogenic action in MVLN cells (inhibition of estradiol-induced luciferase, transactivation antagonism); conditions: inhibition of estradiol-induced luciferase activity, read-out: Anti-oestrogenic action in vitro: MVLN transactivation antagonism IC50

molecule	tested-system	readout-units	IC50
CN(CCCCCCC1=C(c2ccc(F)c(O)c2)CCCc2c1ccc(O)c2Cl)CCCS(=O)(=O)CCCC(F)(F)C(F)(F)F	oestrogen receptor (ER) (Homo sapiens, UniProt P03372)	nM	13
CCN(CCCCCCC1=C(c2ccccc2)CCCc2cc(O)ccc21)CCC[S+]([O-])CCCC(F)(F)C(F)(F)F (racemic)	oestrogen receptor (ER) (Homo sapiens, UniProt P03372)	nM	5
[O-][S+](CCCN(CCCO)CCCCCCC1=C(c2ccccc2)CCCc2cc(O)ccc21)CCC(F)(F)F (racemic)	oestrogen receptor (ER) (Homo sapiens, UniProt P03372)	nM	9
CN(CCCCCCC1=C(c2cc(O)ccc2F)CCCc2cc(O)ccc21)CCCS(=O)(=O)CCCC(F)(F)C(F)(F)F	oestrogen receptor (ER) (Homo sapiens, UniProt P03372)	nM	2
CN(CCCCCC1=C(c2cccnc2)CCCc2cc(O)ccc21)CCCS(=O)(=O)CCCC(F)(F)C(F)(F)F	oestrogen receptor (ER) (Homo sapiens, UniProt P03372)	nM	110
CN(CCCCCCC1=C(c2cccc(O)c2)CCCc2cc(O)ccc21)CCCCS(=O)(=O)CCCC(F)(F)C(F)(F)F	oestrogen receptor (ER) (Homo sapiens, UniProt P03372)	nM	3
CN(CCCCCC1=C(c2ccc(S(C)(=O)=O)cc2)CCCc2cc(O)ccc21)CCCS(=O)(=O)CCCC(F)(F)C(F)(F)F	oestrogen receptor (ER) (Homo sapiens, UniProt P03372)	nM	34

Origin of measurements: patent US20150080438A1
